experiment summary: activity coefficient (dimensionless); of the first substance listed, at infinite dilution; xn = mol fraction of the nth substance listed
measurement context: 322.75 K; Liquid; Chromatography; x1 = 0
measured metric: activity coefficient

CCC=O [propanal] + CCCC[N+](C)(C)C.O=S(=O)([N-]S(=O)(=O)C(F)(F)F)C(F)(F)F
0.54
CCCCCCC [heptane] + CCCC[N+](C)(C)C.O=S(=O)([N-]S(=O)(=O)C(F)(F)F)C(F)(F)F
25.6
CCCCCCCC [octane] + CCCC[N+](C)(C)C.O=S(=O)([N-]S(=O)(=O)C(F)(F)F)C(F)(F)F
37.2
CCCC=O [butanal] + CCCC[N+](C)(C)C.O=S(=O)([N-]S(=O)(=O)C(F)(F)F)C(F)(F)F
0.79
CCCCCCCCC [nonane] + CCCC[N+](C)(C)C.O=S(=O)([N-]S(=O)(=O)C(F)(F)F)C(F)(F)F
52.6
CCCCC(=O)OC [methyl pentanoate] + CCCC[N+](C)(C)C.O=S(=O)([N-]S(=O)(=O)C(F)(F)F)C(F)(F)F
1.66
Cc1ccccc1 [toluene] + CCCC[N+](C)(C)C.O=S(=O)([N-]S(=O)(=O)C(F)(F)F)C(F)(F)F
1.73
CCCCCC=O [hexanal] + CCCC[N+](C)(C)C.O=S(=O)([N-]S(=O)(=O)C(F)(F)F)C(F)(F)F
1.92
CN1CCCC1=O [N-methylpyrrolidone] + CCCC[N+](C)(C)C.O=S(=O)([N-]S(=O)(=O)C(F)(F)F)C(F)(F)F
81.3
CCCCC=O [pentanal] + CCCC[N+](C)(C)C.O=S(=O)([N-]S(=O)(=O)C(F)(F)F)C(F)(F)F
1.62
c1ccccc1 [benzene] + CCCC[N+](C)(C)C.O=S(=O)([N-]S(=O)(=O)C(F)(F)F)C(F)(F)F
1.3

The reported measurements were obtained from the NIST ThermoML archive (doi:10.1021/je050440b).
